Hi! I'm sharing some AC50 results obtained with Kappa-type opioid receptor (Homo sapiens, UniProt P41145).
Sequence (P41145 whole entry): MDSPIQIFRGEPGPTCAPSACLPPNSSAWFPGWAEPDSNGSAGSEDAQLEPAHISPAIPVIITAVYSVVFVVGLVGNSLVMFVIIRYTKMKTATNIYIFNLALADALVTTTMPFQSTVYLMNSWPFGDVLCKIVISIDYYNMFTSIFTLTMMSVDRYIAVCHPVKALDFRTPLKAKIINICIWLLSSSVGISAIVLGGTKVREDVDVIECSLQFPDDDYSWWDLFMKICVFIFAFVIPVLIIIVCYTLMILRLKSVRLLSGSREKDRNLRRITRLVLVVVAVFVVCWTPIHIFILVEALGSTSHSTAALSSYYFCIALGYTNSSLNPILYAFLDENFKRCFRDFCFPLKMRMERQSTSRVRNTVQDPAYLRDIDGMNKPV
Your answer should be a plain number; it is taken to be in µM.

Here's what some known entries look like.
C=CCNc1nc(NCC=C)nc(N2CCN(C(c3ccc(F)cc3)c3ccc(F)cc3)CC2)n1	18
CC(=O)[C@@]1(O)CC[C@H]2[C@@H]3C=C(Cl)C4=CC(=O)[C@@H]5C[C@@H]5[C@]4(C)[C@H]3CC[C@@]21C	5.32
CC(C)N(CCC(C(N)=O)(c1ccccc1)c1ccccn1)C(C)C (stereo not given) [DISOPYRAMIDE]	6.73

Could you now look at the following molecule, please?
Req: Please give measured AC50 of the following entry: CC12CC3CC(C)(C1)CC(N)(C3)C2 [MEMANTINE]
Resp: 15.2

---

SUBJECT_OF_TEST: Muscarinic acetylcholine receptor M2 (Homo sapiens)
Sequence (P08172 whole entry): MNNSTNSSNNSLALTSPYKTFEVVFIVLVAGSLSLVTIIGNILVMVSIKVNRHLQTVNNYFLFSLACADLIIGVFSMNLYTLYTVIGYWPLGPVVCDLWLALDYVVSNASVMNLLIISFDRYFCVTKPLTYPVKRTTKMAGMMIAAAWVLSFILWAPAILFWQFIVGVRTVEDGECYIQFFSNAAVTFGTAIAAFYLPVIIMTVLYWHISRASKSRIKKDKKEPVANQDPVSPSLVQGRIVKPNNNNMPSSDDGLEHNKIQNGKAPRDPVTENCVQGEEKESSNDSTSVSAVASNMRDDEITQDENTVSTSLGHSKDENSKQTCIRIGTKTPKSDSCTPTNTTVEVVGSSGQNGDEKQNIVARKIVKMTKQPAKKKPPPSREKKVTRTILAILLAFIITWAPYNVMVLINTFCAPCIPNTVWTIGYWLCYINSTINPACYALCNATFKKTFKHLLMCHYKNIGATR
Format: functional, cell-based
ASSAY_METRIC: AC50

C[C@H](Cc1ccc(O)c(O)c1)[C@@H](C)Cc1ccc(O)c(O)c1	> 30 µM
CCC(=O)O[C@]1(C(=O)SCF)[C@H](C)C[C@H]2[C@@H]3C[C@H](F)C4=CC(=O)C=C[C@]4(C)[C@@]3(F)[C@@H](O)C[C@@]21C [FLUTICASONE PROPIONATE]	> 30 µM
CCCN(CCC)C(=O)Cc1c(-c2ccc(Cl)cc2)nc2ccc(Cl)cn12	> 30 µM
CC(C(=O)O)c1ccc2c(c1)[nH]c1ccc(Cl)cc12 (stereo unspecified)	> 10 µM
C/N=C(\NC)NCc1ccccc1	> 30 µM
CN(C)CC[C@@H](c1ccc(Cl)cc1)c1ccccn1	26 µM
COc1ccc(-c2noc(CC(=O)O)c2-c2ccc(OC)cc2)cc1	> 30 µM
O=C1CN=C(c2ccccc2)c2cc([N+](=O)[O-])ccc2N1	> 10 µM
CN1C(C(=O)Nc2ccccn2)=C(O)c2ccccc2S1(=O)=O	> 10 µM
[H]/N=C(/N)N/C(=N/[H])NCCc1ccccc1	> 10 µM

# ---- query compound ----
Req: Using the record for Clc1ccc(C(Cn2ccnc2)OCc2ccsc2Cl)c(Cl)c1 (stereo unspecified) , state its measured AC50.
Resp: > 30 µM

---

SUBJECT_OF_TEST: Sodium-dependent noradrenaline transporter (Homo sapiens)
Sequence (P23975 whole entry): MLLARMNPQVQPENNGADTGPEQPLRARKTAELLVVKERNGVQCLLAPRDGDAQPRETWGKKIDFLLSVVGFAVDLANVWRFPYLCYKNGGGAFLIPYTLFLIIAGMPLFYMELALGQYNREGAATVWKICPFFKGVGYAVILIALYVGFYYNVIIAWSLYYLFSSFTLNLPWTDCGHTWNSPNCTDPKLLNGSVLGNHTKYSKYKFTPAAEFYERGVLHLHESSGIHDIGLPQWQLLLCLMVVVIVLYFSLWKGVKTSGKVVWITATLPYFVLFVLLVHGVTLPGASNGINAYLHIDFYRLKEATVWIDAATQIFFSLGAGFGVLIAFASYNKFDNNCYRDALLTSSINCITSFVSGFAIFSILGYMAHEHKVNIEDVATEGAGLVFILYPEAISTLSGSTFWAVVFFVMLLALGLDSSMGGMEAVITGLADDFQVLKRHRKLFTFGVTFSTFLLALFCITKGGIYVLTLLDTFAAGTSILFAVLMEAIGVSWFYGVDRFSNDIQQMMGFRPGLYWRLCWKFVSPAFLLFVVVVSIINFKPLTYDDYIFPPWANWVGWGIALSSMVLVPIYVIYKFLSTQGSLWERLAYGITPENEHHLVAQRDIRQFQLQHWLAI
AC50 values, listed per item

CC(N)C(O)c1ccccc1 (stereo not drawn)	> 30 µM
O=C(O)c1ccccc1Nc1cc(Cl)ccc1C(=O)O	> 30 µM

Req: With Sodium-dependent noradrenaline transporter (Homo sapiens) as the test system, provide measured AC50 for this molecule: OC[C@H]1O[C@@](CO)(O[C@H]2O[C@H](CO)[C@@H](O)[C@H](O)[C@H]2O)[C@@H](O)[C@@H]1O
Resp: > 30 µM

---

Below are AC50 values recorded for UniProt:P07550.
Sequence (P07550 whole entry): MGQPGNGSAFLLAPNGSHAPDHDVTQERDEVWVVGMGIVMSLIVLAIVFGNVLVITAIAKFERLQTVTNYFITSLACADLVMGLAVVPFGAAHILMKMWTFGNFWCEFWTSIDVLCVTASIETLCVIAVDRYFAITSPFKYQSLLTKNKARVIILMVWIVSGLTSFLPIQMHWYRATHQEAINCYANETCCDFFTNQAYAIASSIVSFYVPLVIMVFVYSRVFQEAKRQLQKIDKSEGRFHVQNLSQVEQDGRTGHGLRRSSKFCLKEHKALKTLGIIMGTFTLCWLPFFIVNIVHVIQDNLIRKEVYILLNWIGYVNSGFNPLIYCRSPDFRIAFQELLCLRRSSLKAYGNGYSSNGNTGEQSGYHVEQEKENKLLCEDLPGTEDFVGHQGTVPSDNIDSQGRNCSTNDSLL

Completed entries (count: 5):
CC(C)(C)C(=O)OCC(=O)[C@H]1CC[C@H]2[C@@H]3CCC4=CC(=O)CC[C@]4(C)[C@H]3CC[C@]12C [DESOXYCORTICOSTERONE PIVALATE]	> 10 µM
CCC(=O)O[C@]1(C(=O)SCF)[C@H](C)C[C@H]2[C@@H]3C[C@H](F)C4=CC(=O)C=C[C@]4(C)[C@@]3(F)[C@@H](O)C[C@@]21C [FLUTICASONE PROPIONATE]	> 30 µM
CC(=O)[C@]1(O)Cc2c(O)c3c(c(O)c2[C@@H](O[C@H]2C[C@H](N)[C@H](O)[C@H](C)O2)C1)C(=O)c1ccccc1C3=O [IDARUBICIN]	> 30 µM
CC1=C(C)C(=O)C(C(CCCCCC(=O)O)c2ccccc2)=C(C)C1=O (stereo not given) [SERATRODAST]	> 30 µM
CCN(CC)CCNC(=O)c1c(C)[nH]c(/C=C2\C(=O)Nc3ccc(F)cc32)c1C [SUNITINIB]	8 µM

Now examine the next entry.
Req: GET AC50 | system: UniProt:P07550 | item: CC(C)Cc1ccc(C(C)C(=O)O)cc1 (stereo not given) [IBUPROFEN]
Resp: > 10 µM

---

AC50, Melanocortin receptor 4 (Homo sapiens, UniProt P32245): measured values

See these solved cases before continuing.
CC(=O)[C@@]1(O)CC[C@H]2[C@@H]3C=C(Cl)C4=CC(=O)[C@@H]5C[C@@H]5[C@]4(C)[C@H]3CC[C@@]21C	> 10 µM
Cn1c(=O)cc(N2CCC[C@@H](N)C2)n(Cc2ccccc2C#N)c1=O	> 30 µM
COc1cc2c(cc1OC)C(CCc1ccc(Cl)cc1)N(C)CC2 (centres undefined)	> 30 µM
Cc1noc(NS(=O)(=O)c2ccc(N)cc2)c1C	> 10 µM
O=C1CN(/N=C/c2ccc(-c3ccc([N+](=O)[O-])cc3)o2)C(O)=N1	> 10 µM

Req: Respond only with AC50 recorded for CCCC(CCC)C(N)=O [VALPROMIDE]
Resp: > 30 µM

Req: For the compound CO[C@H]1/C=C/O[C@@]2(C)Oc3c(C)c(O)c4c(O)c(c(/C=N/N5CCN(C)CC5)c(O)c4c3C2=O)NC(=O)/C(C)=C\C=C\[C@H](C)[C@H](O)[C@@H](C)[C@@H](O)[C@@H](C)[C@H](OC(C)=O)[C@@H]1C , report AC50.
Resp: > 30 µM

Req: Return AC50 (reported value) for this compound: COc1ccccc1OCCNCC(O)COc1cccc2[nH]c3ccccc3c12 (centres undefined)
Resp: 29.9 µM

Req: Supply reported AC50 belonging to this compound: Nc1ncn([C@H]2C[C@H](O)[C@@H](CO)O2)c(=O)n1
Resp: > 30 µM

Req: Please report the measured AC50 for Clc1ccc(C(Cn2ccnc2)OCc2ccsc2Cl)c(Cl)c1 (centres undefined)
Resp: > 30 µM

Req: Determine from records and report AC50 for O=C1CN=C(c2ccccc2)c2cc([N+](=O)[O-])ccc2N1
Resp: > 10 µM

Req: Look up and report measured AC50 for this entry: OCc1cc(C(O)CNCCCCCCOCCCCc2ccccc2)ccc1O (centres undefined)
Resp: > 30 µM

Req: Give the reported AC50 for this compound. CC(C)[C@H](N)C(=O)OCC(CO)OCn1cnc2c(=O)nc(N)[nH]c21 (some centres undefined)
Resp: > 30 µM

Req: Name the recorded AC50 of the item C[C@H]1c2cccc(O)c2C(=O)C2=C(O)[C@]3(O)C(=O)C(C(N)=O)=C(O)[C@@H](N(C)C)[C@@H]3[C@@H](O)[C@@H]21 in your answer.
Resp: > 30 µM

---

SUBJECT_OF_TEST: Alpha-2A adrenergic receptor (Homo sapiens)
Sequence (P08913 whole entry): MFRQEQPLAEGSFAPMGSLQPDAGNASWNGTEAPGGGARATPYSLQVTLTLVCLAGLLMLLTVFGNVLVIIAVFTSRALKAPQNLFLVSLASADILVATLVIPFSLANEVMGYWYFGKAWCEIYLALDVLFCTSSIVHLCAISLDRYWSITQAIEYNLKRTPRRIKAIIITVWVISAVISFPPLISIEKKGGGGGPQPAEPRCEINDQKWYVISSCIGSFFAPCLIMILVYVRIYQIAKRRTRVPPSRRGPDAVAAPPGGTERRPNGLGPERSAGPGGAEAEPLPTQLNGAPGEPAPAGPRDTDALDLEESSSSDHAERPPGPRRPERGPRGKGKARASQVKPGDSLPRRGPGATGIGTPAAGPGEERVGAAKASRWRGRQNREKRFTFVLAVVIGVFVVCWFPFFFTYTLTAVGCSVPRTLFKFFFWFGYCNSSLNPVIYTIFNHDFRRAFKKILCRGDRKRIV
Type: functional, cell-based
ASSAY_METRIC: AC50

CC(=O)O[C@]1(C(C)=O)CC[C@H]2[C@@H]3C=C(C)C4=CC(=O)CC[C@@H]4[C@H]3CC[C@@]21C [NOMEGESTROL ACETATE]	> 30 µM
O=C(O)CCNC(=O)c1ccccc1	> 30 µM

Please find the next molecule below.
Req: Find the measured AC50 of COc1ccccc1OCCNCC(O)COc1cccc2[nH]c3ccccc3c12 (stereo not drawn) and report it.
Resp: > 30 µM

---

SUBJECT_OF_TEST: Alpha-2A adrenergic receptor (Homo sapiens)
Format: functional, cell-based
# AC50 per record follows

CC12CC3CC(C)(C1)CC(N)(C3)C2 [MEMANTINE]	> 10 µM

Req: Report value only: AC50, Alpha-2A adrenergic receptor (Homo sapiens), CCC(=O)O[C@H]1CC[C@H]2[C@@H]3CCC4=CC(=O)CC[C@]4(C)[C@H]3CC[C@]12C [TESTOSTERONE PROPIONATE]
Resp: > 10 µM

Req: Send back Alpha-2A adrenergic receptor (Homo sapiens) AC50 of CC(S)C(=O)NCC(=O)O (stereo not drawn) only.
Resp: > 30 µM

---

SUBJECT_OF_TEST: cGMP-inhibited 3',5'-cyclic phosphodiesterase 3A (Homo sapiens, UniProt Q14432)
Sequence (Q14432 whole entry): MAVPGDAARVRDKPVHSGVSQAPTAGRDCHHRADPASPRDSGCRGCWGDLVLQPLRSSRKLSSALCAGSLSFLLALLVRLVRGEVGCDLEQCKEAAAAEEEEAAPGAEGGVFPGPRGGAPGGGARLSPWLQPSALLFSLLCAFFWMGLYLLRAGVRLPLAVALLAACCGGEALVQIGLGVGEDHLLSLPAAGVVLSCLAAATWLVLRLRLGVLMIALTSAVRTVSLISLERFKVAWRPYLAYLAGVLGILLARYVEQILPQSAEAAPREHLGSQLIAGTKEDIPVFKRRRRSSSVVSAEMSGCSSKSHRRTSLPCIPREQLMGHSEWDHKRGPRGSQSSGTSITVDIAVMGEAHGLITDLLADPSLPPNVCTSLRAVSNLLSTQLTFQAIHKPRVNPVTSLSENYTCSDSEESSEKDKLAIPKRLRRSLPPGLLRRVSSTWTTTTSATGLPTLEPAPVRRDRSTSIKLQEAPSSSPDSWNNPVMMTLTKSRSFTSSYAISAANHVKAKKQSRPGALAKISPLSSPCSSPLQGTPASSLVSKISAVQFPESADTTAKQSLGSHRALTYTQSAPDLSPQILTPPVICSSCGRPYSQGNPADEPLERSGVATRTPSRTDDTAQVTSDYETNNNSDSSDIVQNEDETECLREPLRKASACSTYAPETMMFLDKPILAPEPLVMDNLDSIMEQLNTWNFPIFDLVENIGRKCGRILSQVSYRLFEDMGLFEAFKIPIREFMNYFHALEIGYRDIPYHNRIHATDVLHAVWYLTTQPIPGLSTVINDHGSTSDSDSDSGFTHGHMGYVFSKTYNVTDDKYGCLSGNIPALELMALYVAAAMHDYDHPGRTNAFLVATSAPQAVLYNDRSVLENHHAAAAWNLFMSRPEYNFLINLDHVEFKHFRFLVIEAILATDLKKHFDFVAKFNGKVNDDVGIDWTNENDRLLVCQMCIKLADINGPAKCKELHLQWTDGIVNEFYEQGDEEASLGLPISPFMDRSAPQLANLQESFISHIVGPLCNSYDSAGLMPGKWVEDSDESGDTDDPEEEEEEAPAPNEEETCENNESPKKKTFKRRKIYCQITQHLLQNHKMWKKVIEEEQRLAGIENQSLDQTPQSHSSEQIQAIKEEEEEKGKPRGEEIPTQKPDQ
Assay type: functional
ASSAY_METRIC: AC50

CCCC(CCC)C(N)=O [VALPROMIDE]	> 30 µM
O=C1CN(/N=C/c2ccc(-c3ccc([N+](=O)[O-])cc3)o2)C(O)=N1 [DANTROLENE]	> 30 µM
CC(C)COCC(CN(Cc1ccccc1)c1ccccc1)N1CCCC1 (stereo not drawn) [BEPRIDIL]	> 30 µM
CC(=O)[C@]1(O)Cc2c(O)c3c(c(O)c2[C@@H](O[C@H]2C[C@H](N)[C@H](O)[C@H](C)O2)C1)C(=O)c1ccccc1C3=O [IDARUBICIN]	> 30 µM
Clc1ccc2c(N3CCN(CCCN4CCN(c5ccnc6cc(Cl)ccc56)CC4)CC3)ccnc2c1 [PIPERAQUINE]	4.7 µM
C/N=C(\NC)NCc1ccccc1 [BETHANIDINE]	> 30 µM
COc1ccccc1OCCNCC(O)COc1cccc2[nH]c3ccccc3c12 (stereo not drawn) [CARVEDILOL]	> 30 µM
Cn1c(=O)cc(N2CCC[C@@H](N)C2)n(Cc2ccccc2C#N)c1=O [ALOGLIPTIN]	> 30 µM
O=C1CN=C(c2ccccc2)c2cc([N+](=O)[O-])ccc2N1 [NITRAZEPAM]	> 30 µM
CC1(C)S[C@@H]2[C@H](NC(=O)[C@H](N)c3ccccc3)C(=O)N2[C@H]1C(=O)OCOC(=O)[C@@H]1N2C(=O)C[C@H]2S(=O)(=O)C1(C)C [SULTAMICILLIN]	> 30 µM

Req: Consider the compound CN1C(C(=O)Nc2ccccn2)=C(O)c2ccccc2S1(=O)=O [PIROXICAM] and give its recorded AC50.
Resp: > 30 µM

Req: Supply recorded AC50 for CC(C)N(CCC(C(N)=O)(c1ccccc1)c1ccccn1)C(C)C (stereo not drawn) [DISOPYRAMIDE] here.
Resp: 5.4 µM

Req: Report measured AC50; entry is C[C@]12CC[C@@H]3c4ccc(O)cc4C[C@@H](CCCCCCCCC[S+]([O-])CCCC(F)(F)C(F)(F)F)[C@H]3[C@@H]1CC[C@@H]2O (stereo partly drawn) [FULVESTRANT]
Resp: > 30 µM

Req: Kindly indicate its recorded AC50. Item: CC(C)NCC(O)c1ccc(O)c(O)c1 (stereo not drawn) [ISOPROTERENOL]
Resp: 18 µM
